organism: Cavia porcellus; experiment: Compound was tested for agonist activity of isolated guinea pig gallbladder by using functional assay; details: read-out: ED50 (the source's name)
Readings of pEC50 for the listed compounds
Just so you know, pEC50 here is -log10 of the concentration in molar units; reply with that number alone.

// worked examples, pEC50 included
| compound | observedValue |
| --- | --- |
| CC(C)N(C(=O)CN1C(=O)C(C)(CC(=O)Nc2ccccc2)C(=O)N(c2ccccc2)c2ccccc21)c1ccccc1 (stereo unspecified) | 6.72 |
| CC(C)N(C(=O)CN1C(=O)C(C)(Cc2c[nH]c3ccccc23)C(=O)N(c2ccccc2)c2ccccc21)c1ccccc1 (stereo unspecified) | 6.33 |
| COc1ccc(N(C(=O)CN2C(=O)C(Cc3n[nH]c4ccccc34)C(=O)N(c3ccccc3)c3ccccc32)C(C)C)cc1 (stereo unspecified) | 6.96 |
| COc1ccc(N(C(=O)CN2C(=O)C(Cc3nn(C)c4ccccc34)C(=O)N(c3ccccc3)c3ccccc32)C(C)C)cc1 (stereo unspecified) | 7.15 |
| COc1ccc(N(C(=O)CN2C(=O)C(C)(Cc3n[nH]c4ccccc34)C(=O)N(c3ccccc3)c3ccccc32)C(C)C)cc1 (stereo unspecified) | 6.49 |
| CC(C)N(C(=O)CN1C(=O)C(Cc2n[nH]c3ccccc23)C(=O)N(c2ccccc2)c2ccccc21)c1ccccc1 (stereo unspecified) | 6.85 |

INPUT: Returns the measured pEC50 for the input compound. Input: COc1ccc(N(C(=O)CN2C(=O)C(C)(Cc3c[nH]c4ccccc34)C(=O)N(c3ccccc3)c3ccccc32)C(C)C)cc1 (stereo unspecified)
OUTPUT: 6.28

INPUT: Also CC(C)N(C(=O)CN1C(=O)C(C)(Cc2n[nH]c3ccccc23)C(=O)N(c2ccccc2)c2ccccc21)c1ccccc1 (stereo unspecified) , if possible.
OUTPUT: 7.70

INPUT: Could you do the same for CSCC[C@H](NC(=O)[C@H](Cc1ccc(OS(=O)(=O)O)cc1)NC(=O)[C@@H](N)CC(=O)O)C(=O)NCC(=O)N[C@@H](Cc1c[nH]c2ccccc12)C(=O)N[C@@H](CCSC)C(=O)N[C@@H](CC(=O)O)C(=O)N[C@@H](Cc1ccccc1)C(N)=O [SINCALIDE] , please?
OUTPUT: 8.70

INPUT: Would you mind doing COc1ccc(N(C(=O)CN2C(=O)C(Cc3c[nH]c4ccccc34)C(=O)N(c3ccccc3)c3ccccc32)C(C)C)cc1 (stereo unspecified) as well?
OUTPUT: 6.47

INPUT: Proceed to COc1ccc(N(C(=O)CN2C(=O)C(Cc3nn(Cc4ccccc4)c4ccccc34)C(=O)N(c3ccccc3)c3ccccc32)C(C)C)cc1 (stereo unspecified)
OUTPUT: 6.47

----------
Target: Cholecystokinin receptor type A (Homo sapiens)
Sequence (P32238 whole entry): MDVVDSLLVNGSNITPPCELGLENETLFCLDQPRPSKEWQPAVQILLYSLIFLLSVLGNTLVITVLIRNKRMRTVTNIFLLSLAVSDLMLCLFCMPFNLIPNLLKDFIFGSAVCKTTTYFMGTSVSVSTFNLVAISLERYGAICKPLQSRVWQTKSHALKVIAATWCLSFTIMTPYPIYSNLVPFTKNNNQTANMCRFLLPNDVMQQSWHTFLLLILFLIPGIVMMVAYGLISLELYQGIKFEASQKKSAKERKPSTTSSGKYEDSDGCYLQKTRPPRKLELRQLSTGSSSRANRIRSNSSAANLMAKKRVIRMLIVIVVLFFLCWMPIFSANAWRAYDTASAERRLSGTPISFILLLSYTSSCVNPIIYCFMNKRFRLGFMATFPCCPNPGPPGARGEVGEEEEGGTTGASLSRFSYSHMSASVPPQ
Label label 1 when IC50 is strictly below 0.1 µM; at or above that, label label 0.

INPUT: Check if IC50 falls below 0.1 µM for CC(C)N(C(=O)CN1C(=O)C(Cc2n[nH]c3ccccc23)C(=O)N(c2ccccc2)c2ccccc21)c1ccccc1 (stereo not given) .
OUTPUT: label 1

INPUT: // repeat for CC(C)N(C(=O)CN1C(=O)C(C)(Cc2c[nH]c3ccccc23)C(=O)N(c2ccccc2)c2ccccc21)c1ccccc1 (stereo not given) and report
OUTPUT: label 0
